- method.notes: Acute toxicity in rat (LD50, 50% lethal dose)
- settings: in vivo, iv; rat (Wister strain), i.v.; read-out: LD50 i.v.
reported.endpoint: LD50 (mg/kg)
Give just the numeric value; mg/kg need not be written.

Enquiry: GET /values?readout=LD50&item= CCC(C)NCC(O)COc1cccc2ccc(=O)[nH]c12 (centres unmarked)
Return: 143

Further cases:
Enquiry: GET /values?readout=LD50&item= CC(C)NCC(O)COc1cccc2ccc(=O)[nH]c12 (centres unmarked)
Return: 178

Enquiry: Do the same for CC(C)(C)NCC(O)COc1cccc2ccc(=O)[nH]c12 (centres unmarked) please
Return: 148

Enquiry: Do the same for CC(C)(C)NCC(O)COc1cccc2[nH]c(=O)ccc12 (centres unmarked) please
Return: 136

Enquiry: Do the same for CC(C)NCC(O)COc1cccc2[nH]c(=O)ccc12 (centres unmarked) please
Return: 162

###

Below is a list of entries, each paired with its recorded LD50 value.
- method.notes: Acute toxicity in rat (LD50, 50% lethal dose)
- settings: in vivo, po; rat (Wister strain), p.o.; read-out: LD50 p.o.
Give just the numeric value; mg/kg need not be written.

Consider the reported LD50 for these molecules:
Enquiry: GET /values?readout=LD50&item= CCC(C)NCC(O)COc1cccc2ccc(=O)[nH]c12 (centres unmarked)
Return: 1900

Enquiry: Do the same for CC(C)NCC(O)COc1cccc2ccc(=O)[nH]c12 (centres unmarked) please
Return: 2000

Enquiry: Do the same for CC(C)NCC(O)COc1cccc2[nH]c(=O)ccc12 (centres unmarked) please
Return: 2000

Further cases:
Enquiry: GET /values?readout=LD50&item= CC(C)(C)NCC(O)COc1cccc2ccc(=O)[nH]c12 (centres unmarked)
Return: 1800

Enquiry: Do the same for CC(C)(C)NCC(O)COc1cccc2[nH]c(=O)ccc12 (centres unmarked) please
Return: 1800
